- Test system: Human immunodeficiency virus 1
- experiment: Antiviral activity against B clade X4 tropic HIV1 NL43 in HeLa H1-JC.37 cells by focal infectivity assay
- Assay type: functional, organism-based
- test_context: Human immunodeficiency virus 1, NL43, HeLa
quantity_kind: pEC50
// scale note: pEC50 = -log10(conc_M); give the bare number

Query: Which pEC50 value is on record for O=S(=O)(/C=C/c1cc(O)c(O)c(O)c1)CS(=O)(=O)/C=C/c1cc(O)c(O)c(O)c1 ?
Result: 6.48

====

- Test system: Human immunodeficiency virus 1
- experiment: Antiviral activity against A clade R5 tropic HIV1 92RW016 in HeLa H1-JC.37 cells by focal infectivity assay
- Type: functional, organism-based
- test_context: Human immunodeficiency virus 1, 92RW016, HeLa
quantity_kind: EC50 (nM)
Number in nM, nothing else.

Query: Which EC50 value is on record for O=S(=O)(/C=C/c1cc(O)c(O)c(O)c1)CS(=O)(=O)/C=C/c1cc(O)c(O)c(O)c1 ?
Result: 700
